Taken from PubChem BioAssay (NCATS).

# protocol: Primary qHTS for inhibitors of nuclear receptor binding SET domain protein 2 (NSD2) in an isogenic RCH-ACV NSD2 p.E1099K mutant (9B) (AID 1645876); also: nearly all actives have a fitted effect of over 70% in size
# condition set: RCH-ACV (leukaemia line) NSD2 E1099K (9B) viability, CellTiter-Glo, 72 h; series mostly up to 44.9 µM
Results filed as inconclusive are left out. Activity calls are given as the source filed them. Calls follow the shape of the dose curve; as a rule, active = well fitted inhibition curve with a large enough effect; inconclusive = small, poorly fitted or top-dose-only effect; inactive = flat fitted curve, though single readings scatter.
Pick from active, inactive when you respond.

Consider the worked cases shown below.
- Nc1ccc(F)cc1NC(=O)c1ccc(CNC(=O)/C=C/c2cccnc2)cc1: active
- Cc1ccc([C@@H]2O[C@H](CO)[C@@H](O)[C@H](O)[C@H]2O)cc1Cc1ccc(-c2ccc(F)cc2)s1: active
- CC(=O)NCCNc1cc(Cl)nn2c(-c3cccc(S(=O)(=O)N(C)C)c3)c(C)nc12: active
- CCOC(=O)CCNc1cc(N2CCc3ccccc3CC2)nc(-c2ccccn2)n1: active
- Cc1noc(-c2ccc(-c3ccc(C4(C(=O)O)CC4)cc3)cc2)c1NC(=O)O[C@H](C)c1ccccc1: active
- Nc1nc(Nc2ccc3c(c2)CC[C@@H](N2CCCC2)CC3)nn1-c1cc2c(nn1)-c1ccccc1CCC2: active

Each molecule tested received a call. Report the one for `CCNCCc1ccc(CN(CC)c2cc(OC)ccc2[C@@H]2CCc3cc(O)ccc3C2)cc1` . active

Each molecule tested received a call. Report the one for `COc1ccc(Oc2cc(NCCC(F)(F)F)c3ncc(-c4ccc(C(=O)NC5CC5)c(C)c4)n3n2)c(F)c1F` . active

Each molecule tested received a call. Report the one for `NC(=O)C1=C(O)[C@@]2(O)C(=O)C3=C(O)c4c(O)cccc4C[C@H]3C[C@H]2CC1=O` . active

Each molecule tested received a call. Report the one for Cc1cc(C(=O)Nc2nc3cccc(Cl)c3n2C2CCCCN(C(=O)/C=C/CN(C)C)C2)ccn1 (configuration not stated) . active

Each molecule tested received a call. Report the one for `C/C=C/C[C@@H](C)C(=O)[C@H]1C(=O)N[C@@H](C(C)C)C(=O)N(C)CC(=O)N(C)[C@@H](CC(C)C)C(=O)N[C@@H](C(C)C)C(=O)N(C)[C@@H](CC(C)C)C(=O)N[C@@H](C)C(=O)N[C@H](C)C(=O)N(C)[C@@H](CC(C)C)C(=O)N(C)[C@@H](CC(C)C)C(=O)N(C)[C@@H](C(C)C)C(=O)N1C` . inactive

Each molecule tested received a call. Report the one for `Cc1ncc(NC(=O)c2cccc(C(F)(F)F)c2)cc1-c1cnc(OC2CCOCC2)c(N2CCOCC2)c1` . active

Each molecule tested received a call. Report the one for `N#Cc1c(N)nc(N)nc1N[C@H](c1nc2c(F)ccc(Cl)c2c(=O)n1-c1cccnc1)C1CC1` . active

Each molecule tested received a call. Report the one for `C[C@H](NC(=O)c1c(N)nn2cccnc12)c1cc2cccc(C#Cc3cnn(C)c3)c2c(=O)n1-c1ccccc1` . active

Each molecule tested received a call. Report the one for `COc1ccccc1C(=O)Nc1cc2c(cc1N1CCNC[C@H]1C)n(C)c(=O)n2C` . active

Each molecule tested received a call. Report the one for `Nc1nonc1-c1nc2cnccc2n1C1CC1` . active

Each molecule tested received a call. Report the one for `CC[C@@H]1[C@H](F)C(=O)N[C@@H]1COc1nccc2cc(C(N)=O)c(OC)cc12` . active
